Assign bioavailability to each entry below.
Test: Bioavailability in rat at 10 umol/kg, po
Assay type: ADME, organism-based
Conditions: in vivo
Numbers only, in %.

OC1CCc2cccc(Nc3ncc(-c4ccc(C(F)(F)F)cc4)o3)c2C1 (centres undefined); 5

Hi team, please reply with bioavailability for each item in this list.
1. Cc1nc(Nc2cccc3c2CC(O)CC3)oc1-c1ccc(C(F)(F)F)cc1 (centres undefined)
2. Cc1nc(Nc2cccc3c2C[C@@H](O)CC3)oc1-c1ccc(C(F)(F)F)cc1
3. Cc1nc(Nc2cccc3c2C[C@H](O)CC3)oc1-c1ccc(C(F)(F)F)cc1

1. 33
2. 7
3. 52

* * *

Target: Transient receptor potential cation channel subfamily M member 8 (Homo sapiens, UniProt Q7Z2W7)
Sequence (Q7Z2W7 whole entry): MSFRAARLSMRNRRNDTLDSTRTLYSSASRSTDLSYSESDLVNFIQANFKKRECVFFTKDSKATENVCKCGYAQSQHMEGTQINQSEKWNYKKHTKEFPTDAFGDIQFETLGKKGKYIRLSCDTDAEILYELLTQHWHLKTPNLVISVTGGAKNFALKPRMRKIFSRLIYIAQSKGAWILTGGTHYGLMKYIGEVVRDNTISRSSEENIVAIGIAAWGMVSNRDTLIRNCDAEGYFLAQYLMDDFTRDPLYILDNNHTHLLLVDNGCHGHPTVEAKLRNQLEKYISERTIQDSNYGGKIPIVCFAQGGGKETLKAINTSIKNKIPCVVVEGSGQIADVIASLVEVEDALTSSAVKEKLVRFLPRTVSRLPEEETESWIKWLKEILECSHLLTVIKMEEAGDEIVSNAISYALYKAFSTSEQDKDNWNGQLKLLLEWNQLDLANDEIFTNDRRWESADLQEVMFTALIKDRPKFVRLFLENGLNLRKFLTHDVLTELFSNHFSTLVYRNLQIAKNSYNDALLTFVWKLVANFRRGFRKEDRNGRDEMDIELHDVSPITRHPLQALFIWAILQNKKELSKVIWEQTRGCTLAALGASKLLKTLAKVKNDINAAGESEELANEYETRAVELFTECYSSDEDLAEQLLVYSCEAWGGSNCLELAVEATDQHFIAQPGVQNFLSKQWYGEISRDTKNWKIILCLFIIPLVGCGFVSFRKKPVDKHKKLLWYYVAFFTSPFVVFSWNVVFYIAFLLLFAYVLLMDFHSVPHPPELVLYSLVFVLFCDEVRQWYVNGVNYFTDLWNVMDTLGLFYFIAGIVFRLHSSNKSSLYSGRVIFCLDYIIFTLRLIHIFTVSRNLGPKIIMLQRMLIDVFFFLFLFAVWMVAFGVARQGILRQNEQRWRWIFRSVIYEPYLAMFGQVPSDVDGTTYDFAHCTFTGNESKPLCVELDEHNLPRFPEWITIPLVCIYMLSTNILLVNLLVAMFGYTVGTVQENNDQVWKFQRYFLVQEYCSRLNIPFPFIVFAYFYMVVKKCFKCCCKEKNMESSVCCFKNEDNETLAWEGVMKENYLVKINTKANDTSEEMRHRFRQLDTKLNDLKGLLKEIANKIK
Test: Antagonist activity at human TRPM8 receptor
quantity: IC50 (µM)
Give bare numbers, in µM.

For Cc1nc(Nc2cccc3c2C[C@H](O)CC3)oc1-c1ccc(C(F)(F)F)cc1 , write its IC50.
44

* * *

Test: Ratio of drug level in brain to plasma in rat at 10 umol/kg, iv and po
Type: ADME, organism-based
Conditions: read-out: BPR
quantity: Kp
Numbers only.

CCc1nc(Nc2cccc3c2CC(O)CC3)oc1-c1ccc(C(F)(F)F)cc1 (stereo unspecified); 3.7

Hi team, please reply with Kp for each item in this list.
1. N#Cc1ccc(-c2nc(Nc3cccc4c3CC(O)CC4)oc2-c2ccc(C(F)(F)F)cc2)cc1 (stereo unspecified)
2. Cc1nc(Nc2cccc3c2CC(O)CC3)oc1-c1ccc(C(F)(F)F)cc1 (stereo unspecified)
3. OC1CCc2cccc(Nc3nc(-c4ccc(F)cc4)c(-c4ccc(C(F)(F)F)cc4)o3)c2C1 (stereo unspecified)
4. Cc1nc(Nc2cccc3c2C[C@H](O)CC3)oc1-c1ccc(C(F)(F)F)cc1
5. Cc1nc(Nc2cccc3c2C[C@@H](O)CC3)oc1-c1ccc(C(F)(F)F)cc1

1: 0.13; 2: 3; 3: 0.21; 4: 3; 5: 3

* * *

Target: Transient receptor potential cation channel subfamily V member 1 (Homo sapiens)
Sequence (Q8NER1 whole entry): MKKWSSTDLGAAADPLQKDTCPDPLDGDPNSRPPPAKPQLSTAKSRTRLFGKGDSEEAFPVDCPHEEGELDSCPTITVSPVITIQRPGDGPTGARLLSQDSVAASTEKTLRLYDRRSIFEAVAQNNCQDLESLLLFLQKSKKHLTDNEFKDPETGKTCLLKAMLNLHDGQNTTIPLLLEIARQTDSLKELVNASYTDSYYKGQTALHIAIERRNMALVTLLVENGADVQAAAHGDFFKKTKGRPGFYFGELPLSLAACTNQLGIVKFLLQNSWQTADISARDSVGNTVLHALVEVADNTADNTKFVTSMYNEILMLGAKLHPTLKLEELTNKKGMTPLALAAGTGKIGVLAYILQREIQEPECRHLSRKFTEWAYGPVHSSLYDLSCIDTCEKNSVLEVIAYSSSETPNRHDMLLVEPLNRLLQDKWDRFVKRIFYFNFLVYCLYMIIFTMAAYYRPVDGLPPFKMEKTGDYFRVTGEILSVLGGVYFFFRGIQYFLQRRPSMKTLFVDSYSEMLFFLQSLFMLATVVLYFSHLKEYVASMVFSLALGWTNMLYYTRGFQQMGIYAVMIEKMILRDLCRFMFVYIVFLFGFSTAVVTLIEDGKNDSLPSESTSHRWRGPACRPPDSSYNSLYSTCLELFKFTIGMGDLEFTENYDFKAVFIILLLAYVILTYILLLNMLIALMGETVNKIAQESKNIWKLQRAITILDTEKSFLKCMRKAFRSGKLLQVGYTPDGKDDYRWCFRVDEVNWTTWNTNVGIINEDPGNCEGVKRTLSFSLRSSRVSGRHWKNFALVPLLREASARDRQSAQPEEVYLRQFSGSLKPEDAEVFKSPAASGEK
Experiment: Antagonist activity at human recombinant TRPV1 receptor expressed in human 1321 cells assessed as inhibition of capsaicin-induced in intracellular calcium levels by FLIPR assay
pIC50: −log10 of the molar value.
pIC50 vs 7: at or above is condition met, below is condition not met.

Reference set, count: 4
CCc1nc(Nc2cccc3c2CC(O)CC3)oc1-c1ccc(C(F)(F)F)cc1 (stereo unspecified); condition met
FC(F)(F)c1ccc(-c2cnc(Nc3cccc4cnccc34)o2)cc1; condition not met
OC1CCc2cccc(Nc3nc(-c4ccccc4)co3)c2C1 (stereo unspecified); condition not met
OC1CCc2cccc(Nc3ncc(-c4ccccc4)o3)c2C1 (stereo unspecified); condition not met

Determine whether measured pIC50 meets or exceeds 7 for CC(C)(C)c1ccc(-c2cnc(Nc3cccc4c3CC(O)CC4)o2)cc1 (stereo unspecified)
condition met

* * *

Biological target: Transient receptor potential cation channel subfamily V member 1 (Homo sapiens)
Test: Antagonist activity at human recombinant TRPV1 receptor expressed in human 1321 cells assessed as inhibition of capsaicin-induced in intracellular calcium levels by FLIPR assay
quantity: log10(IC50) (log10 of the value in nM)
Response schema: value (number) is log10 of IC50 in units of nM.

// below: answered compounds
OC1CCc2cccc(Nc3nc(Br)c(-c4ccc(C(F)(F)F)cc4)o3)c2C1 (stereo not given); 0.95
N#Cc1ccc(-c2nc(Nc3cccc4c3CC(O)CC4)oc2-c2ccc(C(F)(F)F)cc2)cc1 (stereo not given); 0.30
OC1CCc2cccc(Nc3ncc(-c4ccc(Cl)cc4)o3)c2C1 (stereo not given); 1.18
COc1ccc(-c2cnc(Nc3cccc4c3CC(O)CC4)o2)cc1 (stereo not given); 1.91

Next compound, please.
For CC(C)c1nc(Nc2cccc3c2CC(O)CC3)oc1-c1ccc(C(F)(F)F)cc1 (stereo not given) , write its log10(IC50).
2.06

The values you see were collected from ChEMBL document CHEMBL1177639.
